# assay_system: EGFr isolated from solubilised A431 cell membranes (Homo sapiens, UniProt P00533)
# Construct: EGFr isolated from solubilised A431 cell membranes; endogenous in cells; host or cells: A431 cells (solubilised membranes)
# Sequence (P00533 25-1210): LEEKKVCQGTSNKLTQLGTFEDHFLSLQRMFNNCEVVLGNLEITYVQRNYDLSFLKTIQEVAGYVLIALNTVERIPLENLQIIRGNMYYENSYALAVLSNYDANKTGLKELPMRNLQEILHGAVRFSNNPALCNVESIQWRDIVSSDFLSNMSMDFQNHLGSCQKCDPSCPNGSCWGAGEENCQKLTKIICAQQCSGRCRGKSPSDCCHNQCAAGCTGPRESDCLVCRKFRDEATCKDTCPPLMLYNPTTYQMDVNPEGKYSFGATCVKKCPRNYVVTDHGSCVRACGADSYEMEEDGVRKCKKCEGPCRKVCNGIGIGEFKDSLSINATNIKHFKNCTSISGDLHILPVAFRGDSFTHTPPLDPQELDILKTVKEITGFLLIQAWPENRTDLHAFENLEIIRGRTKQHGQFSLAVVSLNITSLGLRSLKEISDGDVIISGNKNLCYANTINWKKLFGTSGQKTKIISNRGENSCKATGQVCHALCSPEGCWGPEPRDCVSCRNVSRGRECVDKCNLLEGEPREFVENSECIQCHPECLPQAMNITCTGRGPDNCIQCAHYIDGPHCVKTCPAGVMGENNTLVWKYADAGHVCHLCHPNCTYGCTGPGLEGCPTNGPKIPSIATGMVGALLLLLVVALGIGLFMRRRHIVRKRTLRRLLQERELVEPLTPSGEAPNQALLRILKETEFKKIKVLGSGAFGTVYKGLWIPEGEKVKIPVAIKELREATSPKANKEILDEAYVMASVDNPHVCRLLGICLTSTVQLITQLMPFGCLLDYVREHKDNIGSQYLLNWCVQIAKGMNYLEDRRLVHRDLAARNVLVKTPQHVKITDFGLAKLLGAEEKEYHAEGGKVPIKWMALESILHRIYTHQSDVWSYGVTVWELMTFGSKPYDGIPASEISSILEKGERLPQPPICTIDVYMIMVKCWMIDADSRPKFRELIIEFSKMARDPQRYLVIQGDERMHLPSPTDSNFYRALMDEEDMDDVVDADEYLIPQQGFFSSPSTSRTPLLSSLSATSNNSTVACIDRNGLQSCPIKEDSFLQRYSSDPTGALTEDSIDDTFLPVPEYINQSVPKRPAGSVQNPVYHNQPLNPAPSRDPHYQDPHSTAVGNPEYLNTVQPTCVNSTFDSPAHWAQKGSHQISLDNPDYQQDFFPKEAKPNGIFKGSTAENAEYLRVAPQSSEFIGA
# protocol_description: Substrate phosphorylation assay, EGFr
# Type: biochemical
# condition_label: 30 minutes, room temperature, ATP and peptide at Km
# Protocol: The substrate phosphorylation assays use baculovirus expressed, recombinant constructs of the intracellular domains of c-erbB-2 and c-erbB4 that are constitutively active and EGFr isolated from solubilised A431 cell membranes. […] The plate is washed and the level of phosphotyrosine on the peptide is determined using a Europium-labelled antiphosphotyrosine antibody and quantified with a time-resolved fluorescence technique. […]
Structures can show the parent of a compound that is named as a salt.
measured_quantity: IC50 (nM)
Number only, in nM; omit the unit.

These recorded examples may help you get a feel for the data.
c1ccc(COc2ccc(Nc3ncnc4cnc(-c5ccc(CNc6cccnc6)o5)cc34)cc2)cc1 :: 260
O=C(O)CNCc1ccc(-c2cc3c(Nc4ccc(OCc5ccccc5)cc4)ncnc3cn2)o1 [Example 11, hydrochloride] :: 88
OCc1ccc(-c2cc3c(Nc4ccc(OCc5ccccc5)cc4)ncnc3cn2)o1 [Example 12, hydrochloride] :: 31

Next item in the queue.
Field IC50 (entry CN(C)Cc1ccc(-c2cc3c(Nc4ccc(OCc5ccccc5)cc4)ncnc3cn2)o1 [Example 6, hydrochloride] ) reads 380
